Consider the following binders; for each one, report its Kd.
biological target: cynomolgus monkey (cyno) TIGIT protein (cynomolgus monkey, UniProt A0A7N9I9V4 89-209); assay: SPR, captured mAb
Sequence (A0A7N9I9V4 entry or part of it): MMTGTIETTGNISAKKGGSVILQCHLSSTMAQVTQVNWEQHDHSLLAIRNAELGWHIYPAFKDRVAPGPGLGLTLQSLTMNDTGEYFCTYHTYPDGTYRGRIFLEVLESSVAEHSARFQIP
Report the value in nM with no unit label.

Exercise: Give its Kd value. Item: h15C8.L1H2 (antibody, V domains shown, VH: L37V against h15C8.L1H1; FR/HVR pieces) VH: EVQLVQSGAEVKKPGASVKVSCKASGYTFTEHSIYWVRQAPGQRLEIIGRIDPKNGRTYFVDKFKNRATLTTDTSASTAYMELSSLRSEDTAVYFCARIDGFYFDFWGQGTLVTVSS VL: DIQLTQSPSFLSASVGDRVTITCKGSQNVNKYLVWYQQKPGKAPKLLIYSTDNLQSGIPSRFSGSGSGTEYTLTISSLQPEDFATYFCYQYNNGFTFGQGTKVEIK
Solution: 2.1

Exercise: Also h7E7.L2H1 (antibody, V domains shown, VL: I58V against h7E7.L1H1; FR/HVR pieces) VH: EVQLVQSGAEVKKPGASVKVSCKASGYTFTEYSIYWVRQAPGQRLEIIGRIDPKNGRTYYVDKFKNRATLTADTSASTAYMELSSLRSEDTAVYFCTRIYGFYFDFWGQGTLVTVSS VL: DIQLTQSPSFLSASVGDRVTITCKGSQNVNKYLVWYQQKPGKAPKLLIYNTDNLQSGVPSRFSGSGSGTEYTLTISSLQPEDFATYFCYQYNNGFTFGQGTKVEIK ?
Solution: 0.36
